system: Coagulation factor XI (Homo sapiens)
Sequence (P03951 19-387 limits assumed): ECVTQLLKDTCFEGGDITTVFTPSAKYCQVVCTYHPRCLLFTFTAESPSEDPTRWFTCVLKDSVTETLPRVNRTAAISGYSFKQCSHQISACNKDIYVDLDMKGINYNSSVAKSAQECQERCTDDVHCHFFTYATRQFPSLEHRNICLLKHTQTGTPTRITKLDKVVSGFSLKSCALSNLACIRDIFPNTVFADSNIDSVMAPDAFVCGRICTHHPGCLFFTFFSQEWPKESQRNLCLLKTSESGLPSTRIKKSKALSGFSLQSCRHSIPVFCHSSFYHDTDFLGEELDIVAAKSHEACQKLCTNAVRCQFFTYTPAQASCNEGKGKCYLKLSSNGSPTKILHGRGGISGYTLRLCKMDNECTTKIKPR
Sequence (P03951 388-625 limits assumed): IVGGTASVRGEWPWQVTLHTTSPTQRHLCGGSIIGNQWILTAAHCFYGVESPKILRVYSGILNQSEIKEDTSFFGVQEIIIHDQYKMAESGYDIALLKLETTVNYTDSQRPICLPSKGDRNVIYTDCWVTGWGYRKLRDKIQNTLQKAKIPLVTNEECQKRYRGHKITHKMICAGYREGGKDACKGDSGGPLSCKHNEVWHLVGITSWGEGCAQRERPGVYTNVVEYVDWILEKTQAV
protocol conditions: dose 50.0 nM, time 1.0 hrs
Would you kindly list inhibition for each of these compounds?
One number for each entry, in %.

O=C(/C=C/c1cc(Cl)ccc1-n1cnnn1)N[C@@H](CCC(=O)N1CCSCC1)C(=O)Nc1ccc(C(=O)O)cc1 = 21.9
CC1CCN(C(=O)C[C@H](NC(=O)/C=C/c2cc(Cl)ccc2-n2cnnn2)C(=O)Nc2ccc(C(=O)O)cc2)CC1 = 3.6
CC(C)N1CCN(C(=O)C[C@H](NC(=O)/C=C/c2cc(Cl)ccc2-n2cnnn2)C(=O)Nc2ccc(C(=O)O)cc2)CC1 = 44
CN1CCN(C(=O)C[C@H](NC(=O)/C=C/c2cc(Cl)ccc2-n2cnnn2)C(=O)Nc2ccc(C(=O)O)cc2)CC1 = 17.2
CN1CCN(C(=O)CC[C@H](NC(=O)/C=C/c2cc(Cl)ccc2-n2cnnn2)C(=O)Nc2ccc(C(=O)O)cc2)CC1 = 20.5

# return inhibition for each item in the list
1. CCN1CCN(C(=O)CC[C@H](NC(=O)/C=C/c2cc(Cl)ccc2-n2cnnn2)C(=O)Nc2ccc(C(=O)O)cc2)CC1
2. O=C(/C=C/c1cc(Cl)ccc1-n1cnnn1)N[C@@H](CC(=O)N1CCSCC1)C(=O)Nc1ccc(C(=O)O)cc1

[17.2, 52.3]

Ref: ChEMBL document CHEMBL5046289
